Target: human GPRC5D (human, UniProt Q9NZD1 1-345)
Sequence (Q9NZD1 whole entry): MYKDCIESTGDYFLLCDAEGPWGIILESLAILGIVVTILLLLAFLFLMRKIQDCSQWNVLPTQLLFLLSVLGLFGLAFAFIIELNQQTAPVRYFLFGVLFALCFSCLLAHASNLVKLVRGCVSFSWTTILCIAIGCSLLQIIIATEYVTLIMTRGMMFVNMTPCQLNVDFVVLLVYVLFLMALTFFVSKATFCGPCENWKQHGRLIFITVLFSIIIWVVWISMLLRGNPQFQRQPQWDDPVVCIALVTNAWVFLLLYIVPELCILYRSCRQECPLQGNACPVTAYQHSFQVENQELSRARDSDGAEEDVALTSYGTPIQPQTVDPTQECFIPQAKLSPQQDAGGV
Experiment: cell-based or functional assay
For each of the binders below, state its EC50 values of CAR-J activation.
Supply the numeric figure in ng/mL, leaving out any unit text.

Entry under test: 5F11_P1AE5745 (antibody, V domains shown, Humanized 5F11 IgG; PGLALA Fc implied by the CAR-J assay; also called 5F11_VH1c + 5F11_VL1b) VH: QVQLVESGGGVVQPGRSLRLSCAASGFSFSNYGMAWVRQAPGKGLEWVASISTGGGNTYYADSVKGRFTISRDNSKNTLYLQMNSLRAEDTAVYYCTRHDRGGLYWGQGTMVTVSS VL: DIVMTQSPLSLPVTPGEPASISCRSSKSLLHSNGITYVYWYLQKPGKSPQVLIYRMSNLASGVPDRFSGSGSGTDFTLKISRVEAEDVGVYHCGQLLENPYTFGQGTKLEIK . Its EC50 values of CAR-J activation was 1.62

Entry under test: P1AE5718 (antibody, V domains shown, Humanized 5E11 IgG; PGLALA Fc implied by the CAR-J assay; also called 5E11_VH1b + 5E11_VL3a) VH: ELQLLESGGGLVQPGGSLRLSCAASGFTFSKYAMAWVRQAPGKGLEWVASISTGGVNTYYRDSVKARFTISRDNAKNTLYLQMNSLRAEDTAVYYCATHTGDYFDYWGQGTMVTVSS VL: DIQMTQSPSSLSASVGDRVTITCRASQSVSISGINLMNWYQQKPGKQPKLLIYHASILASGVPSRFSGSGSGTDFTLTISSLQPEDFATYYCQQTRESPLTFGQGTRLEIK . Its EC50 values of CAR-J activation was 105

Entry under test: P1AE5763 (antibody, V domains shown, Humanized 5F11 IgG; PGLALA Fc implied by the CAR-J assay; also called 5F11_VH2d + 5F11_VL2b) VH: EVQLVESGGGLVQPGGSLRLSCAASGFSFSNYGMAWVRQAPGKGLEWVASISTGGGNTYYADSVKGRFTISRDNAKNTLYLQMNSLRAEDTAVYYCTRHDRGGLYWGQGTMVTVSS VL: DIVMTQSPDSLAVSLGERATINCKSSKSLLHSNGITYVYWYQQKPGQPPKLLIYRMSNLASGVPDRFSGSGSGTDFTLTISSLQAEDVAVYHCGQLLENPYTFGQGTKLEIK . Its EC50 values of CAR-J activation was 5.47

Entry under test: P1AE5744 (antibody, V domains shown, Humanized 5F11 IgG; PGLALA Fc implied by the CAR-J assay; also called 5F11_VH1c + 5F11_VL1a) VH: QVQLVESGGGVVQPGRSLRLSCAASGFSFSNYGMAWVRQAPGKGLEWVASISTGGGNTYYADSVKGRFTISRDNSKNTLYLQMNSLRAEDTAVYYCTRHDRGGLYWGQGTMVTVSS VL: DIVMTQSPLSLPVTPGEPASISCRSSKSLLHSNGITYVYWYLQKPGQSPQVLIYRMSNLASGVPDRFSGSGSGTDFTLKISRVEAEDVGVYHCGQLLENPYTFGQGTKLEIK . Its EC50 values of CAR-J activation was 3.63

Entry under test: 5E11_P1AE5728 (antibody, V domains shown, Humanized 5E11 IgG; PGLALA Fc implied by the CAR-J assay; also called 5E11_VH1d + 5E11_VL2a) VH: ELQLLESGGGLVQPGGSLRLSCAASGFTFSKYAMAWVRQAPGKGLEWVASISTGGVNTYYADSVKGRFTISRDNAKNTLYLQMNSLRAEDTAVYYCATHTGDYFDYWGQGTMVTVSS VL: EIVLTQSPGTLSLSPGERATLSCRASQSVSISGINLMNWYQQKPGQQPRLLIYHASILASGIPDRFSGSGSGTDFTLTISRLEPEDFAVYYCQQTRESPLTFGQGTRLEIK . Its EC50 values of CAR-J activation was 5.6

Reference source: patent US20220259318A1
